MEASURED_ENDPOINT: melting point

Recorded results for 7 compounds are shown here.
>>> readout_value("COc1ccc(N2CCOCC2)c2sc(NC(=O)N(C)C3CCC(C(F)(F)F)CC3)nc12 (centres unmarked)")
"157 to 167 °C"
>>> readout_value("COc1ccc(N2CCOCC2)c2sc(NC(=O)N3CC4CCC(C3)O4)nc12")
"229 to 231 °C"
>>> readout_value("COc1ccc(N2CCOCC2)c2sc(NC(=O)N(C)C3CC4CCC3O4)nc12 (single isomer, unassigned) [Example 8]")
"202 to 203 °C"
>>> readout_value("COc1ccc(N2CCOCC2)c2sc(NC(=O)N(C)[C@H]3CC[C@H](C)CC3)nc12")
"171 to 173 °C"
>>> readout_value("COc1ccc(N2CCOCC2)c2sc(NC(=O)N(C)[C@H]3CC[C@H](CO)CC3)nc12")
"190 °C (dec.)"
>>> readout_value("COc1ccc(N2CCOCC2)c2sc(NC(=O)N(C)C3CC4CC3CC4O)nc12 (racemic)")
"189 °C"
>>> readout_value("COc1ccc(N2CCOCC2)c2sc(NC(=O)N(C)C3CCC(CO)C3)nc12 (racemic)")
"115 to 118 °C"

Query string: Report melting point, nothing else, for this compound: COc1ccc(N2CCOCC2)c2sc(NC(=O)N(C)C3CC4CCC3O4)nc12 (racemic) [Example 9]
Result string: 191 to 193 °C
